These measurements were taken from ChEMBL document CHEMBL1201862.

Test system: MOLT-4
Experiment: NCI tumour cell line growth inhibition, 48 h
Activity calls are given as the source filed them. Rule as the data show it: active = GI50 up to about 1.1 µM and inactive = higher.
MEASUREMENT_LABEL: GI50

Guide cases for GI50, answers given:
# COMPOUND, GI50
measured = [
    ("c1ccc(/N=C(/Nc2ccccc2)N2CCCCC2)cc1", "51.5 µM (inactive)"),
    ("O=c1c2ncn(C3CCCO3)c2n(-c2ccccc2)c(=S)n1-c1ccccc1 (stereo not drawn)", "> 100 µM (inactive)"),
]

So what does the record say about GI50 for `COC(=O)Nc1nc(=O)c2cc(OC)c(OC)cc2[nH]1` ?
6.84 µM (inactive)

----------
System: SW-620
Assay: NCI tumour cell line growth inhibition, 48 h
Calls of active or inactive are those of the source. Rule as the data show it: active = GI50 up to about 1.1 µM and inactive = higher.
Pick one: true (1) = active, false (0) = inactive

# MOLECULE, DISCRETE_LABEL
records = [
    ("O=C1CCCC/C1=C\\c1ccc(Cl)c(Cl)c1", "false (0)"),
    ("N=C(N)NS(=O)(=O)c1ccc(NC(=O)c2cccc3c(NNc4ccc(S(=O)(=O)N=C(N)N)cc4)c4ccccc4nc23)cc1", "false (0)"),
    ("Cc1cc(O)c2c(c1)C(=O)C=C(Br)C2=O", "false (0)"),
    ("COc1ccc2c(c1OC)C(=O)c1cnccc1C2=O", "false (0)"),
    ("NC(Cc1c[nH]c(I)n1)C(=O)O (stereo not given)", "false (0)"),
    ("CCOP(=O)(OCC)C(c1ccc(F)cc1)N(C(=O)NC(F)(F)F)c1ccc(F)cc1 (stereo not given)", "false (0)"),
    ("Cc1cccc(Nc2nc3ccccc3nc2NS(=O)(=O)c2ccc(N)cc2)c1", "false (0)"),
    ("CCNc1nc2c(=O)n(C)c(=O)n(C)c2s1", "false (0)"),
    ("Nc1ncnc2c(C3OC(CO)C(O)C3O)n[nH]c12 (stereo not given)", "true (1)"),
]

From here, focus on the item given below.
Which result was noted for this molecule in the test: CC1(C)SC2C(NC(=O)Cc3ccccc3)C(=O)N2C1C(=O)O (stereo not given)
false (0)
